assay: A CellTox Green Cytotoxicity Assay to monitor cytotoxicity in HepG2 cells - 0 hour (AID 1224882); settings: CellTox Green fluorescence; series mostly up to 76.8 µM; further: nearly all actives have a fitted effect of over 35% in size
Activity calls are given as the source filed them. The call rests on the fitted dose curve; in most records, active means well fitted activation curve with a large enough effect in the repeat runs; inconclusive means weak or mixed curves; inactive means flat fitted curve, though single readings scatter.
Please reply with one of these outcomes: active, inactive

Name the outcome recorded for C[N+]1(CCC(C(N)=O)(c2ccccc2)c2ccccc2)CCCCC1 in the assay.
inactive

Also C=CCOCC1CO1 (stereo not drawn) , if possible.
inactive

Quick one: FC(Cl)(Cl)C(F)(Cl)Cl
inactive

Please answer likewise for O=S(=O)(Cl)Cl
inactive

Also need NP(N)(=O)NC(=O)c1ccc(F)cc1 , thanks.
inactive

* * *

Target: Cytochrome P450 2D6 (Homo sapiens)
Assay: Cytochrome P450 Family 2 Subfamily D Member 6 (CYP2D6) small molecule antagonists: luciferase reporter qHTS assay (AID 1671196); further: nearly all actives have a fitted effect of over 50% in size
Conditions: P450-Glo CYP2D6 enzyme assay, luciferin luminescence, 1 h; series mostly up to 115 µM
Text: U.S. Tox21 Program National Center for Advancing Translational Sciences [NCATS] U.S. Environmental Protection Agency [EPA] National Institutes of Environmental Health Sciences [NIEHS] National Toxicology Program [NTP] U.S. Food and Drug Administration [FDA] […] The luciferin products formed are detected with a luciferin detection reagent, and the amount of light produced is proportional to CYP activity. […]
Results filed as inconclusive are left out. Calls of active or inactive are those of the source. Calls come from the whole dose curve; as a rule, active = well fitted inhibition curve with a large enough effect in the repeat runs; inconclusive = weak or mixed curves; inactive = no such curve, though single readings can be large or run the other way.
Pick one: y (active), n (inactive)

Example cases with answers are listed next.
| compound | label |
| --- | --- |
| NC(=S)c1c(Cl)cccc1Cl | n |
| C=C(Cl)Cl | n |
| CCC1CCC(=O)O1 (stereo not given) | n |

Call for entry COCc1cnc(C2=NC(C)(C(C)C)C(=O)N2)c(C(=O)O)c1 (stereo not given) :
n

Then this compound: CNC(=O)Oc1cccc(N=CN(C)C)c1
y

Can you handle C=CCN1C[C@H](C)N([C@H](c2ccc(C(=O)N(CC)CC)cc2)c2cccc(OC)c2)C[C@H]1C next?
y

For FC(Cl)(Cl)C(F)(Cl)Cl then?
n

Follow-up item: O=C(O)COc1cc(Cl)c(Cl)cc1Cl
n

Also CCCCCBr , if possible.
n

Now the compound CCCCOC(=O)CCC(=O)OCCCC
n

* * *

experiment: qHTS assay to identify small molecule antagonists of the androgen receptor (AR) signaling pathway using the MDA cell line - cell viability counter screen (AID 743041; further: nearly all actives have a fitted effect of over 45% in size); details: MDA-kb2 viability, CellTiter-Fluor, 16 h, cells co-treated with R1881 androgen agonist; series mostly up to 70.3 µM
Results filed as inconclusive are left out. The source made the active and inactive calls. The call rests on the fitted dose curve; in most records, active means well fitted cell-killing curve with a large enough effect in the repeat runs; inconclusive means weak or mixed curves, or effect the other way; inactive means flat fitted curve, though single readings scatter.
Form entry, call: pick from active, inactive

Look over these answered cases.
| compound | label |
| --- | --- |
| CCCCC(CC)CO[N+](=O)[O-] (centres undefined) | inactive |
| COC1CC(=C(c2cccs2)c2cccs2)C[N+](C)(C)C1 (centres undefined) | inactive |
| CCCCC1C(=O)NC(=O)N(C2CCCCC2)C1=O (centres undefined) | inactive |
| C[C@H]1O[C@H](OC2[C@@H](O)[C@@H](O)C(O)[C@H](O)[C@H]2O)[C@@H](N)C[C@@H]1N=C(N)C(=O)O (some centres undefined) | inactive |
| Cc1nnc(-c2ccccc2)c(=O)n1N | inactive |

Hi team, can someone confirm the assay call for CCC(C)(C)O ?
inactive

Try O=C(N[C@H]1CN2CCC1CC2)c1ccc2c(c1)OCCO2 next.
inactive

// repeat for CCC[N+](CCC)(CCC)CCC and report
inactive

Now give it for O=S(=O)(Cl)Cl too.
inactive

Same question, C=CCc1ccc(OC(=O)Cc2ccccc2)c(OC)c1 this time
inactive

Consider next the compound CCC1(C2=NCCN2)Cc2ccccc2O1 (centres undefined) in the same way.
inactive

Moving on to CCSCc1ccccc1OC(=O)NC
inactive

* * *

experiment: Caspase-3/7 induction in HepG2 cells by small molecules, qHTS assay (AID 1346978); settings: HepG2 caspase-3/7 activation, Caspase-Glo luminescence, 17 h; series mostly up to 92.4 µM; further: nearly all actives have a fitted effect of over 15% in size
Records with an inconclusive call do not appear. Activity calls are given as the source filed them. The call rests on the fitted dose curve; in most records, active means well fitted activation curve with a large enough effect in the repeat runs; inconclusive means weak or mixed curves; inactive means flat fitted curve, though single readings scatter.
quantity.name: caspase activation

Study these solved cases before continuing.
| compound | caspase activation |
| --- | --- |
| C[C@H]1[C@@H]2Cc3ccc(O)cc3[C@@]1(C)CCN2C | inactive |
| CC[N+]1(CCOC(=O)C(O)(c2ccccc2)c2ccccc2)CCCCC1 | inactive |
| c1ccc2c(c1)-c1cccc3cccc-2c13 | inactive |
| N#CC1(N=NC2(C#N)CCCCC2)CCCCC1 | inactive |
| O=P(OCC(Br)CBr)(OCC(Br)CBr)OCC(Br)CBr (configuration not stated) | inactive |
| O=C=NC1CCCCC1 | inactive |

// returns reported caspase activation for input CCCCNC(=O)OCC#CI
inactive

* * *

Target: Aryl hydrocarbon receptor (Homo sapiens) (UniProt P35869)
Sequence (P35869 whole entry, looked up): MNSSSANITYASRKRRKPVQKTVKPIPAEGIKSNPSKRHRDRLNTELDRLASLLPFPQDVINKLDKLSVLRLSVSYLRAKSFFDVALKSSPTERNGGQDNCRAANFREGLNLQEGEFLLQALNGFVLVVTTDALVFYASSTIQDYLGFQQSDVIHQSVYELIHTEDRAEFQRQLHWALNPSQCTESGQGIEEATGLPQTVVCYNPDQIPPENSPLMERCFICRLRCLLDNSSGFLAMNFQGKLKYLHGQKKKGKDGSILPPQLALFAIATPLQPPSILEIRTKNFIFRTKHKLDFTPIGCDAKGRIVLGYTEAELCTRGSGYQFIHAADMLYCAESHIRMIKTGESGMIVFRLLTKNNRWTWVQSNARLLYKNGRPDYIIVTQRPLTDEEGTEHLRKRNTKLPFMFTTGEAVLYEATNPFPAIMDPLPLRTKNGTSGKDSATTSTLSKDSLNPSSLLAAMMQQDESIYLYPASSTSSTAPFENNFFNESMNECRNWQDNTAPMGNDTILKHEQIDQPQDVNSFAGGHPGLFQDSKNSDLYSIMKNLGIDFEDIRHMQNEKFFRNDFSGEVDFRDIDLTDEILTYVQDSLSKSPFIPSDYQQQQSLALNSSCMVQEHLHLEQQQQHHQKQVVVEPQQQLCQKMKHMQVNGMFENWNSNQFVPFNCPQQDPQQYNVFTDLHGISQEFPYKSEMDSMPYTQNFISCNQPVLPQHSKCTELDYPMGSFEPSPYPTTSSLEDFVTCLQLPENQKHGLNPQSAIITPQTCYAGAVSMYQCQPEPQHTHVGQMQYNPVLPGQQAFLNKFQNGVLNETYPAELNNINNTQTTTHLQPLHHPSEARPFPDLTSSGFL
Test: qHTS assay to identify small molecule that activate the aryl hydrocarbon receptor (AhR) signaling pathway (AID 743085); further: nearly all actives have a fitted effect of over 15% in size;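 on activation: HG2L7.5c1 human HepG2 liver cells with stably integrated DRE-driven firefly reporter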
Settings: HepG2 AhR-luc (HG2L7.5c1), luciferase, 24 h; series mostly up to 70.3 µM
From the text: U.S. Tox21 Program National Center for Advancing Translational Sciences [NCATS] NIH Chemical Genomics Center [NCGC] U.S. Environmental Protection Agency [EPA] National Institutes of Environmental Health Sciences [NIEHS] National Toxicology Program [NTP] U.S. Food and Drug Administration [FDA] Tox21 Assay overview: The Aryl hydrocarbon Receptor (AhR), a member of the family of basic helix-loop-helix transcription factors, is crucial to adaptive responses to environmental changes. […]
Records with an inconclusive call do not appear. Active and inactive are the calls of the source. Calls follow the shape of the dose curve; as a rule, active = well fitted activation curve with a large enough effect in the repeat runs; inconclusive = weak or mixed curves; inactive = no such curve, though single readings can be large or run the other way.
// classify into 1 (active), -1 (inactive)

| molecule | label |
| --- | --- |
| O=C(CCl)CCl | -1 |
| COP(=O)(OC)OC(Br)C(Cl)(Cl)Br (configuration not stated) | -1 |
| O=[N+]([O-])c1cc(Cl)c(Cl)cc1Cl | -1 |
| CCCCCCCCCCCC[N+](C)(C)CCOc1ccccc1 | -1 |

Would you mind telling me which call this test gave CC(C)c1ccc(OP(=O)(Oc2ccc(C(C)C)cc2)Oc2ccc(C(C)C)cc2)cc1 ?
-1

Now the molecule CC(C)OC(=O)Cc1ccccc1
-1

* * *

experiment: qHTS assay to identify small molecule antagonists of the peroxisome proliferator-activated receptor delta (PPARd) signaling pathway - cell viability counter screen (AID 743213); conditions: PPARd-bla HEK293H viability, CellTiter-Glo luminescence, 17 h; series mostly up to 62 µM; further: nearly all actives have a fitted effect of over 50% in size
Results filed as inconclusive are left out. The source made the active and inactive calls. Calls follow the shape of the dose curve; as a rule, active = well fitted cell-killing curve with a large enough effect in the repeat runs; inconclusive = weak or mixed curves; inactive = no such curve, though single readings can be large or run the other way.
Response enum: y = active, n = inactive

Please review the following examples before continuing.
| compound | label |
| --- | --- |
| CN(C)c1ccc(N=O)cc1 | y |
| CC(C)CCON=O | n |
| Nc1cccc2ccccc12 | n |

Which outcome did this test record for the compound CC(C)c1ccc(OP(=O)(Oc2ccc(C(C)C)cc2)Oc2ccc(C(C)C)cc2)cc1 ?
y

Now give it for Cc1nc2ccccc2c(=O)n1-c1ccccc1Cl too.
n

Here is the next compound: O=C(N/N=C/c1ccc([N+](=O)[O-])o1)c1cc([N+](=O)[O-])cc([N+](=O)[O-])c1O
n

And NC(=S)c1c(Cl)cccc1Cl ?
n

Item: CCCCC#N
n

* * *

biological target: Aryl hydrocarbon receptor (Homo sapiens); assay: qHTS assay to identify small molecule that activate the aryl hydrocarbon receptor (AhR) signaling pathway (AID 743085); conditions: HepG2 AhR-luc (HG2L7.5c1), luciferase, 24 h; series mostly up to 70.3 µM; further: nearly all actives have a fitted effect of over 15% in size;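 on activation: HG2L7.5c1 human HepG2 liver cells with stably integrated DRE-driven firefly reporter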
Inconclusive results are not listed. Activity calls are given as the source filed them. The call rests on the fitted dose curve; in most records, active means well fitted activation curve with a large enough effect in the repeat runs; inconclusive means weak or mixed curves; inactive means no such curve, though single readings can be large or run the other way.
Just give me one of these, please: active, inactive

Example entries and their recorded answers appear below.
| molecule | label |
| --- | --- |
| CON(C)C(=O)Nc1ccc(Cl)cc1 | active |
| C[C@H]1O[C@H](OC2[C@@H](O)[C@@H](O)C(O)[C@H](O)[C@H]2O)[C@@H](N)C[C@@H]1N=C(N)C(=O)O (stereo partly specified) | inactive |
| COc1cc(C[C@@H](C)N)c(OC)cc1Br | inactive |
| CCCN(CCC)c1c([N+](=O)[O-])cc(C(C)C)cc1[N+](=O)[O-] | inactive |
| OCCCl | inactive |

We next turn to a different molecule, shown below.
Could you kindly confirm the outcome this assay logged for CC(C)(C)NCC(O)c1cc(Cl)c(N)c(C(F)(F)F)c1 (stereo unspecified) ?
inactive

* * *

experiment: A CellTox Green Cytotoxicity Assay to monitor cytotoxicity in HepG2 cells - 32 hour (AID 1224883); details: CellTox Green fluorescence; series mostly up to 76.8 µM; further: nearly all actives have a fitted effect of over 50% in size
Inconclusive results are not listed. Active and inactive are the calls of the source. The call rests on the fitted dose curve; in most records, active means well fitted activation curve with a large enough effect in the repeat runs; inconclusive means weak or mixed curves; inactive means flat fitted curve, though single readings scatter.
Could you please pick one outcome from this set? active, inactive

Some entries whose results are on file:
| compound | label |
| --- | --- |
| COc1ccc(C(O)(c2cncnc2)C2CC2)cc1 (stereo unspecified) | inactive |
| Nc1cccc2ccccc12 | inactive |
| O=C(NC(=O)c1cc(F)c(F)cc1Cl)Nc1cc(F)ccc1N1CCC(C(=O)O)CC1 | inactive |
| CC(C)(c1ccccc1)c1cc(-n2nc3ccccc3n2)c(O)c(C(C)(C)c2ccccc2)c1 | inactive |
| CC(Oc1cccc(Cl)c1)C(=O)O (stereo unspecified) | inactive |

Attention now shifts to the item below.
Could you please tell me the result logged for C[C@H](N)[C@H](O)c1ccc(O)c(O)c1 in this assay?
active
